- tested system: T1, 5-HT1B receptor of rat brain (rat, UniProt P28564 1-386)
- T1 construct: whole, on cells
- T1 sequence (P28564 whole entry): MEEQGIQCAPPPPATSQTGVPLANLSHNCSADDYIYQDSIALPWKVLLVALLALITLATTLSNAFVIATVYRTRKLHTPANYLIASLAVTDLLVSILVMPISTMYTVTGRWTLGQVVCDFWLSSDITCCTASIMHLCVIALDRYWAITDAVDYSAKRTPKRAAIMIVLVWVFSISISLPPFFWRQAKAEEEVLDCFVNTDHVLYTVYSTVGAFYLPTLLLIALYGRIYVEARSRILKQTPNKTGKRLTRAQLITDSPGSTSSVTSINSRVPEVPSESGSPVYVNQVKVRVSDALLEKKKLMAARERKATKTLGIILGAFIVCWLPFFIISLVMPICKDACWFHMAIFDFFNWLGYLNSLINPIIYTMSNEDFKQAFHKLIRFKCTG
- procedure details: inhibition of [125I]cyanopindolol binding, rat cerebral tissue homogenates
parameter measured: IC50 (nM)
Kindly provide the numeric value in nM only, without the unit symbol.

Enquiry: Fill in: IC50 of LSAL (also called LSAL; the peptide) [Leu-Ser-Ala-Leu] is ___
Return: 0.01
